Molecular target: Sialate O-acetylesterase (Homo sapiens)
Assay: blockers of sialate O-acetylesterase activity-probe labeling – biochemical, fluorescence polarization, FP-Rh probe, 1536-well HTS, primary screen (AID 1053197);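 further: 0% = plate median of compound wells and 100% = probe without SIAE protein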
Conditions: SIAE FP-Rh probe binding, at 9.66 µM, stronger effect = higher value
Out of some 370,000 compounds screened, about 2,600 (0.7%) were called active. The full list was thinned out, with actives kept by preference.
inhibition values, listed per item
Report as a plain number; the unit % is understood.

# example entries with known answers
[
  {
    "molecule": "C=CCN1C(=O)[C@@H](CC(=O)NCC2CCCCC2)[C@]2(C(=O)OC)CCCCC=C12",
    "metric": "inhibition",
    "unitOfMeasure": "%",
    "measured": 20.8
  },
  {
    "molecule": "O=C1CC(c2ccccc2)=NN1c1ccc([N+](=O)[O-])cc1",
    "metric": "inhibition",
    "unitOfMeasure": "%",
    "measured": 19.8
  },
  {
    "molecule": "NNc1nc2c(Cl)cccc2s1",
    "metric": "inhibition",
    "unitOfMeasure": "%",
    "measured": 17.2
  },
  {
    "molecule": "CC1CC(C)CN(C/C=C/c2ccccc2[N+](=O)[O-])C1 (stereo unspecified)",
    "metric": "inhibition",
    "unitOfMeasure": "%",
    "measured": 2.91
  },
  {
    "molecule": "O=C(OC12CCCN(C1)/C(=C/c1ccccc1)C2)c1ccco1 (stereo unspecified)",
    "metric": "inhibition",
    "unitOfMeasure": "%",
    "measured": 0.28
  }
]

## Input GET /values?readout=inhibition&system=Sialate O-acetylesterase (Homo sapiens)&item= COc1ccc(C2C(C(C)=O)=C(O)C(=O)N2CCc2c[nH]c3ccccc23)cc1 (stereo unspecified)
## Output 18.4

## Input Field: inhibition (Sialate O-acetylesterase (Homo sapiens)). Entry: `CC(=O)N1CCCN(C2=Nc3ccccc3Sc3ccccc32)CC1`
## Output 13.5

## Input Kindly state the measured inhibition obtained for `CC(=O)Nc1nc2ncccn2c1-c1ccc(C(F)(F)F)cc1` with Sialate O-acetylesterase (Homo sapiens).
## Output 4.66

## Input Provide value of inhibition for this record tested with Sialate O-acetylesterase (Homo sapiens): COc1ccc(C2CC(c3cccc(OC)c3)=NN2c2ccc(S(N)(=O)=O)cc2)cc1 (stereo unspecified)
## Output 6.8

## Input Find inhibition (Sialate O-acetylesterase (Homo sapiens)) for the entry `O=C(CSc1ccc(-c2ccc(F)cc2)nn1)Nc1ccc2c(c1)OCCO2`
## Output 9.37

## Input State its inhibition on Sialate O-acetylesterase (Homo sapiens): `O=C(Nn1c(SCc2ccc([N+](=O)[O-])cc2)nc2ccccc2c1=O)c1ccc(F)cc1`
## Output -45.6

Taken from PubChem BioAssay AID1053197.
